Experiment: Drug metabolism in human ZR-75B cells assessed as polyglutamylation of compound at 2 uM after 24 hrs by liquid scintillation counting method
Type: ADME, cell-based
Conditions: read-out: Drug metabolism
experimentalReadout: metabolised at 24 h, 2 µM (%)

1) CN(Cc1cnc2nc(N)nc(N)c2n1)c1ccc(C(=O)N[C@@H](CCC(=O)O)C(=O)O)cc1 [METHOTREXATE]    87.6

----------
Experiment: Drug metabolism in human MCF7 cells assessed as polyglutamylation of compound at 2 uM after 24 hrs by liquid scintillation counting method
Format: ADME, cell-based
Conditions: read-out: Drug metabolism
experimentalReadout: metabolised at 24 h, 2 µM

1. CN(Cc1cnc2nc(N)nc(N)c2n1)c1ccc(C(=O)N[C@@H](CCC(=O)O)C(=O)O)cc1 [METHOTREXATE]    55.4%

----------
Assay: Drug metabolism in human MDA231 cells assessed as polyglutamylation of compound at 2 uM after 24 hrs by liquid scintillation counting method
Assay type: ADME, cell-based
Details: MDA231 (MDA-MB-231) cells, read-out: Drug metabolism
experimentalReadout: metabolised at 24 h, 2 µM (%)

1) CN(Cc1cnc2nc(N)nc(N)c2n1)c1ccc(C(=O)N[C@@H](CCC(=O)O)C(=O)O)cc1 [METHOTREXATE]    32
